Listing of entries alongside the reported pEC50.
biological target: IRE1a (Homo sapiens, UniProt O75460); experiment: IRE1a Endoribonuclease Nanoluciferase Assay (XBP1 luciferase reporter in 293T cells); conditions: 293T cells transfected with XBP1 luciferase reporter, ER stressors +/- inhibitors
Sequence (O75460 19-977): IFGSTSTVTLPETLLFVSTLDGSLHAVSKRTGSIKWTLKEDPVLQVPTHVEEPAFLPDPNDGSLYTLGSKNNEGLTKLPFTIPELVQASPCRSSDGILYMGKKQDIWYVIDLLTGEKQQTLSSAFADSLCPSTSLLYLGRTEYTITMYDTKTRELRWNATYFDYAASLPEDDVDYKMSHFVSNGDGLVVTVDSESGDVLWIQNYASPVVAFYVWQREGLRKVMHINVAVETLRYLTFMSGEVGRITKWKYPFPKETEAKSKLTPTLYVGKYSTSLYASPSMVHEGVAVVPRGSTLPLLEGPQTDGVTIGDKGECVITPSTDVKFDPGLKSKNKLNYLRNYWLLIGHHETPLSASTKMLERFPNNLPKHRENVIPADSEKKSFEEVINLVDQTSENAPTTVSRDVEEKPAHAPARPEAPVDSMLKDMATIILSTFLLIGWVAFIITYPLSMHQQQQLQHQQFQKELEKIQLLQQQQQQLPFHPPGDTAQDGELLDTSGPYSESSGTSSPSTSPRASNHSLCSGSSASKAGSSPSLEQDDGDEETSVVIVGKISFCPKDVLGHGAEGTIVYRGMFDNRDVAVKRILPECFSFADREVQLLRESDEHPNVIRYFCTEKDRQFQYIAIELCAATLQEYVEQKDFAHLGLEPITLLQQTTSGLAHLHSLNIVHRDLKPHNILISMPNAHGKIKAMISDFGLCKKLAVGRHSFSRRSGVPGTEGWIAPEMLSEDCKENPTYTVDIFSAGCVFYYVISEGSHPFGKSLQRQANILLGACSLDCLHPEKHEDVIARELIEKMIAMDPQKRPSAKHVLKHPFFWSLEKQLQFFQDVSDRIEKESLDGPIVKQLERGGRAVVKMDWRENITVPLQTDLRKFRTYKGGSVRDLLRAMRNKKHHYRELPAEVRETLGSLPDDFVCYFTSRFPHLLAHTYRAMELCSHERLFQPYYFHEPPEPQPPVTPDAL
pEC50: −log10 of the molar value.
assay.metric: pEC50

{"compound.smiles": "CCc1cc(-c2ccc(NS(=O)(=O)c3ccccc3Cl)c(F)c2)cc2cnc(N[C@H]3CCCNC3)nc12", "meas.value": "≥ 8.30"}
{"compound.smiles": "N[C@H]1CC[C@H](Nc2cc3ccc(-c4ccc(NS(=O)(=O)c5ccccc5Cl)c(F)c4)cc3cn2)CC1", "meas.value": "≥ 8.30"}
{"compound.smiles": "COc1nc(NS(=O)(=O)c2ccccc2Cl)ccc1-c1cc(C)c2nc(N[C@H]3CC[C@H](N)CC3)ncc2c1", "meas.value": "≥ 8.30"}
{"compound.smiles": "NC12CCC(Nc3ncc4cc(-c5ccc(NS(=O)(=O)c6ccccc6Cl)c(F)c5)ccc4n3)(CC1)C2", "meas.value": "7.00 to 7.30"}
{"compound.smiles": "N[C@H]1CC[C@H](Nc2ncc3cc(-c4ncc(NS(=O)(=O)c5ccccc5Cl)cc4F)ccc3n2)CC1", "meas.value": "7.00 to 7.30"}
{"compound.smiles": "CCc1cc(-c2ccc(NS(=O)(=O)c3ccccc3Cl)c(C)c2C)cc2cnc(N[C@H]3CC[C@H](N)CC3)nc12.O=CO", "meas.value": "< 7.00"}
{"compound.smiles": "CCc1cc(-c2cnc(NS(=O)(=O)c3ccccc3Cl)nc2C)cc2cnc(N[C@H]3CC[C@H](N)CC3)nc12.O=CO", "meas.value": "≥ 8.30"}
{"compound.smiles": "CCc1cc(NS(=O)(=O)c2ccccc2Cl)ccc1-c1cc(CC)c2nc(N[C@H]3CC[C@H](N)CC3)ncc2c1.O=CO", "meas.value": "7.30 to 8.30"}
{"compound.smiles": "CCc1cc(-c2ccc(NS(=O)(=O)c3ccccc3C)nc2OC)cc2cnc(N[C@H]3CC[C@H](N)CC3)nc12", "meas.value": "≥ 8.30"}
{"compound.smiles": "CCc1cc(-c2cc(F)c(NS(=O)(=O)c3ccccc3Cl)cc2C)cc2cnc(N[C@H]3CC[C@H](N)CC3)nc12.O=CO", "meas.value": "7.30 to 8.30"}
{"compound.smiles": "Cn1nc(NS(=O)(=O)c2ccccc2Cl)cc1-c1ccc2nc(N[C@H]3CC[C@H](N)CC3)ncc2c1", "meas.value": "< 7.00"}
{"compound.smiles": "CCc1cc(-c2ncc(NS(=O)(=O)c3ccccc3Cl)cc2OC)cc2cnc(N[C@H]3CC[C@H](N)CC3)nc12", "meas.value": "≥ 8.30"}
{"compound.smiles": "CCc1cc(-c2ccc(NS(=O)(=O)c3ccccc3Cl)cc2C)cc2cnc(N[C@H]3CC[C@H](N)CC3)nc12.O=CO", "meas.value": "7.30 to 8.30"}

====

System: 293T cells
Test: Growth assay (cytotoxicity)
Type: cell-based
Conditions: 0.5556 uM, 2 day incubation
Protocol: A growth assay was performed to evaluate the compounds disclosed herein for cytotoxicity. Briefly, 5,000,000 293T cells were resuspended in 18 mL of cDMEM for a final concentration of 277,777 cells/mL. […] Absorbance was then measured at about […] (lower for more acidic media) and about […] (higher for more acidic media).

{"molecule": "CCc1cc(-c2ccc(NS(=O)(=O)c3ccccc3Cl)c(F)c2C)cc2cnc(N[C@H]3CC[C@H](N)CC3)nc12.O=CO [71; Formic Acid]", "% Growth at 0.5556 uM": "D (D: >75% to ≤100%)"}
{"molecule": "CCc1cc(NS(=O)(=O)c2ccccc2Cl)ccc1-c1cc(CC)c2nc(N[C@H]3CC[C@H](N)CC3)ncc2c1.O=CO [34; Formic Acid]", "% Growth at 0.5556 uM": "D (D: >75% to ≤100%)"}
{"molecule": "CCc1cc(-c2cnc(NS(=O)(=O)c3ccccc3Cl)nc2OC)cc2cnc(N[C@H]3CC[C@H](N)CC3)nc12.O=CO [46; Formic Acid]", "% Growth at 0.5556 uM": "D (D: >75% to ≤100%)"}
